Test target: panel of more than 300 wild-type and mutant kinases (313 kinase panel) (Homo sapiens, UniProt P11802)
Sequence (P11802 whole entry, change not shown): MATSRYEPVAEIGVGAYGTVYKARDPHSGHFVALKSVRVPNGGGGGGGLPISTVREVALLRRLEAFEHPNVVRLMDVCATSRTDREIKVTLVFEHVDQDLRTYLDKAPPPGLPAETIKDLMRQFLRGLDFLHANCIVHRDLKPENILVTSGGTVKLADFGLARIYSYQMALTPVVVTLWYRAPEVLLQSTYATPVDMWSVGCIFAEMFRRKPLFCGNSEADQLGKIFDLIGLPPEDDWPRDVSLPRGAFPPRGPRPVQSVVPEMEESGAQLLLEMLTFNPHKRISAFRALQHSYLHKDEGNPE
Measurement notes: Kinase profiling in a biochemical assay panel (mobility shift assays and ELISA), %-inhibition at 1 μM; selectivity entropy
Particulars: kinase CDK4/CycD3; 1 μM compound
Property name: %-inhibition, CDK4/CycD3 (%)
Give the value, in units of %, as a plain number.

Input CC(=O)Nc1cccc(-n2c(=O)n(C3CC3)c(=O)c3c(Nc4ccc(I)cc4F)n(C)c(=O)c(C)c32)c1 [trametinib] , output reported %-inhibition, CDK4/CycD3.
5.62

Input COc1cc2c(Nc3ccc(Br)cc3F)ncnc2cc1OCC1CCN(C)CC1 [vandetanib] , output reported %-inhibition, CDK4/CycD3.
-9

Input O=S(=O)(c1cccc2cnccc12)N1CCCNCC1 [fasudil] , output reported %-inhibition, CDK4/CycD3.
-2.33

Input CCCS(=O)(=O)Nc1ccc(F)c(C(=O)c2c[nH]c3ncc(-c4ccc(Cl)cc4)cc23)c1F [vemurafenib] , output reported %-inhibition, CDK4/CycD3.
-3.26

###

Test target: panel of more than 300 wild-type and mutant kinases (313 kinase panel) (Homo sapiens)
Measurement notes: Kinase profiling in a biochemical assay panel (mobility shift assays and ELISA), %-inhibition at 1 μM; selectivity entropy
Particulars: kinase PLK2; 1 μM
Hi there, I'd appreciate the recorded %-inhibition of PLK2 for every entry that follows.
Give the value, in units of %, as a plain number.

Input O=S(=O)(c1cccc2cnccc12)N1CCCNCC1 , output reported %-inhibition of PLK2.
7

Input CC(C)(C)c1nc(-c2cccc(NS(=O)(=O)c3c(F)cccc3F)c2F)c(-c2ccnc(N)n2)s1 , output reported %-inhibition of PLK2.
-4.64

Input CO[C@H]1C[C@@H]2CC[C@@H](C)[C@@](O)(O2)C(=O)C(=O)N2CCCC[C@H]2C(=O)O[C@H]([C@H](C)C[C@@H]2CC[C@@H](OCCO)[C@H](OC)C2)CC(=O)[C@H](C)/C=C(\C)[C@@H](O)[C@@H](OC)C(=O)[C@H](C)C[C@H](C)/C=C/C=C/C=C/1C , output reported %-inhibition of PLK2.
1.38

Input COc1cc(Nc2c(C#N)cnc3cc(OCCCN4CCN(C)CC4)c(OC)cc23)c(Cl)cc1Cl , output reported %-inhibition of PLK2.
21

Input CO[C@H]1C[C@@H]2CC[C@@H](C)[C@@](O)(O2)C(=O)C(=O)N2CCCC[C@H]2C(=O)O[C@H]([C@H](C)C[C@@H]2CC[C@@H](OC(=O)C(C)(CO)CO)[C@H](OC)C2)CC(=O)[C@H](C)/C=C(\C)[C@@H](O)[C@@H](OC)C(=O)[C@H](C)C[C@H](C)/C=C/C=C/C=C/1C , output reported %-inhibition of PLK2.
0.568

Input CS(=O)(=O)CCNCc1ccc(-c2ccc3ncnc(Nc4ccc(OCc5cccc(F)c5)c(Cl)c4)c3c2)o1 , output reported %-inhibition of PLK2.
-4

Input Cc1ccc(Nc2nccc(N(C)c3ccc4c(C)n(C)nc4c3)n2)cc1S(N)(=O)=O , output reported %-inhibition of PLK2.
1.23

###

Test system: forty-four human cancer cell lines
Measurement notes: Cell proliferation assay (ATPlite, 72 hours) in the 44 cell line Oncolines panel
Type: cell-based
Particulars: Homo sapiens, BT-20, read-out: cell panel IC50, BT-20
Hi there, I'd appreciate the recorded IC50 for every entry that follows.
Give the value, in units of µM, as a plain number.

Input CS(=O)(=O)CCNCc1ccc(-c2ccc3ncnc(Nc4ccc(OCc5cccc(F)c5)c(Cl)c4)c3c2)o1 , output reported IC50.
17.3

Input CNC(=O)c1cc(Oc2ccc(NC(=O)Nc3ccc(Cl)c(C(F)(F)F)c3)cc2)ccn1 , output reported IC50.
25.1

Input CCN(CC)CCNC(=O)c1c(C)[nH]c(/C=C2\C(=O)Nc3ccc(F)cc32)c1C , output reported IC50.
13.2

Input COc1cc2c(Nc3ccc(Br)cc3F)ncnc2cc1OCC1CCN(C)CC1 , output reported IC50.
14.6

###

Hi there, I'd appreciate the recorded %-inhibition, AKT3 for every entry that follows.
Test target: panel of more than 300 wild-type and mutant kinases (313 kinase panel) (Homo sapiens)
Measurement notes: Kinase profiling in a biochemical assay panel (mobility shift assays and ELISA), %-inhibition at 1 μM; selectivity entropy
Particulars: kinase AKT3; 1 μM compound
Give the value, in units of %, as a plain number.

Input CO[C@H]1C[C@@H]2CC[C@@H](C)[C@@](O)(O2)C(=O)C(=O)N2CCCC[C@H]2C(=O)O[C@H]([C@H](C)C[C@@H]2CC[C@@H](OC(=O)C(C)(CO)CO)[C@H](OC)C2)CC(=O)[C@H](C)/C=C(\C)[C@@H](O)[C@@H](OC)C(=O)[C@H](C)C[C@H](C)/C=C/C=C/C=C/1C , output reported %-inhibition, AKT3.
-1.72

Input CCCS(=O)(=O)Nc1ccc(F)c(C(=O)c2c[nH]c3ncc(-c4ccc(Cl)cc4)cc23)c1F , output reported %-inhibition, AKT3.
-0.678

Input Cc1cn(-c2cc(NC(=O)c3ccc(C)c(Nc4nccc(-c5cccnc5)n4)c3)cc(C(F)(F)F)c2)cn1 , output reported %-inhibition, AKT3.
1.58

Input COc1cc2c(Nc3ccc(Br)cc3F)ncnc2cc1OCC1CCN(C)CC1 , output reported %-inhibition, AKT3.
-0.887

Input CC(=O)Nc1cccc(-n2c(=O)n(C3CC3)c(=O)c3c(Nc4ccc(I)cc4F)n(C)c(=O)c(C)c32)c1 , output reported %-inhibition, AKT3.
-5.3

Input COc1cc2nccc(Oc3ccc(NC(=O)C4(C(=O)Nc5ccc(F)cc5)CC4)cc3)c2cc1OC [cabozantinib] , output reported %-inhibition, AKT3.
-3

Input O=S(=O)(c1cccc2cnccc12)N1CCCNCC1 , output reported %-inhibition, AKT3.
6

Input CNC(=O)c1cc(Oc2ccc(NC(=O)Nc3ccc(Cl)c(C(F)(F)F)c3)c(F)c2)ccn1 , output reported %-inhibition, AKT3.
-4.23

Input N#CC[C@H](C1CCCC1)n1cc(-c2ncnc3[nH]ccc23)cn1 , output reported %-inhibition, AKT3.
2

Input CO[C@H]1C[C@@H]2CC[C@@H](C)[C@@](O)(O2)C(=O)C(=O)N2CCCC[C@H]2C(=O)O[C@H]([C@H](C)C[C@@H]2CC[C@@H](OCCO)[C@H](OC)C2)CC(=O)[C@H](C)/C=C(\C)[C@@H](O)[C@@H](OC)C(=O)[C@H](C)C[C@H](C)/C=C/C=C/C=C/1C , output reported %-inhibition, AKT3.
-3.39

Input CS(=O)(=O)CCNCc1ccc(-c2ccc3ncnc(Nc4ccc(OCc5cccc(F)c5)c(Cl)c4)c3c2)o1 , output reported %-inhibition, AKT3.
5

Input Cc1ccc(Nc2nccc(N(C)c3ccc4c(C)n(C)nc4c3)n2)cc1S(N)(=O)=O , output reported %-inhibition, AKT3.
-0.112

Input C[C@@H](Oc1cc(-c2cnn(C3CCNCC3)c2)cnc1N)c1c(Cl)ccc(F)c1Cl , output reported %-inhibition, AKT3.
-1.83

###

Hi there, I'd appreciate the recorded %-inhibition, CDK5/p25 for every entry that follows.
Test target: panel of more than 300 wild-type and mutant kinases (313 kinase panel) (Homo sapiens)
Measurement notes: Kinase profiling in a biochemical assay panel (mobility shift assays and ELISA), %-inhibition at 1 μM; selectivity entropy
Particulars: kinase CDK5/p25; 1 μM compound
Give the value, in units of %, as a plain number.

Input Cc1nc(Nc2ncc(C(=O)Nc3c(C)cccc3Cl)s2)cc(N2CCN(CCO)CC2)n1 , output reported %-inhibition, CDK5/p25.
4.63

Input Cc1ccc(Nc2nccc(N(C)c3ccc4c(C)n(C)nc4c3)n2)cc1S(N)(=O)=O , output reported %-inhibition, CDK5/p25.
9

Input N#CC[C@H](C1CCCC1)n1cc(-c2ncnc3[nH]ccc23)cn1 , output reported %-inhibition, CDK5/p25.
-16

Input COc1cc2nccc(Oc3ccc(NC(=O)C4(C(=O)Nc5ccc(F)cc5)CC4)cc3)c2cc1OC [cabozantinib] , output reported %-inhibition, CDK5/p25.
-14

Input CNC(=O)c1cc(Oc2ccc(NC(=O)Nc3ccc(Cl)c(C(F)(F)F)c3)c(F)c2)ccn1 , output reported %-inhibition, CDK5/p25.
-19

Input Cc1ccc(C(=O)Nc2ccc(CN3CCN(C)CC3)c(C(F)(F)F)c2)cc1C#Cc1cnc2cccnn12 , output reported %-inhibition, CDK5/p25.
-20

Input COc1cc(Nc2c(C#N)cnc3cc(OCCCN4CCN(C)CC4)c(OC)cc23)c(Cl)cc1Cl , output reported %-inhibition, CDK5/p25.
-25

Input CO[C@H]1C[C@@H]2CC[C@@H](C)[C@@](O)(O2)C(=O)C(=O)N2CCCC[C@H]2C(=O)O[C@H]([C@H](C)C[C@@H]2CC[C@@H](OCCO)[C@H](OC)C2)CC(=O)[C@H](C)/C=C(\C)[C@@H](O)[C@@H](OC)C(=O)[C@H](C)C[C@H](C)/C=C/C=C/C=C/1C , output reported %-inhibition, CDK5/p25.
-26

Input CC(C)(C)c1nc(-c2cccc(NS(=O)(=O)c3c(F)cccc3F)c2F)c(-c2ccnc(N)n2)s1 , output reported %-inhibition, CDK5/p25.
22

Input CO[C@H]1C[C@@H]2CC[C@@H](C)[C@@](O)(O2)C(=O)C(=O)N2CCCC[C@H]2C(=O)O[C@H]([C@H](C)C[C@@H]2CC[C@@H](OC(=O)C(C)(CO)CO)[C@H](OC)C2)CC(=O)[C@H](C)/C=C(\C)[C@@H](O)[C@@H](OC)C(=O)[C@H](C)C[C@H](C)/C=C/C=C/C=C/1C , output reported %-inhibition, CDK5/p25.
-22

Input COc1cc2c(Nc3ccc(Br)cc3F)ncnc2cc1OCC1CCN(C)CC1 , output reported %-inhibition, CDK5/p25.
-25

Input Cc1cn(-c2cc(NC(=O)c3ccc(C)c(Nc4nccc(-c5cccnc5)n4)c3)cc(C(F)(F)F)c2)cn1 , output reported %-inhibition, CDK5/p25.
0.83

Input C[C@@H](Oc1cc(-c2cnn(C3CCNCC3)c2)cnc1N)c1c(Cl)ccc(F)c1Cl , output reported %-inhibition, CDK5/p25.
-8

Input CS(=O)(=O)CCNCc1ccc(-c2ccc3ncnc(Nc4ccc(OCc5cccc(F)c5)c(Cl)c4)c3c2)o1 , output reported %-inhibition, CDK5/p25.
0.201

Input CCCS(=O)(=O)Nc1ccc(F)c(C(=O)c2c[nH]c3ncc(-c4ccc(Cl)cc4)cc23)c1F , output reported %-inhibition, CDK5/p25.
5

Input CC(=O)Nc1cccc(-n2c(=O)n(C3CC3)c(=O)c3c(Nc4ccc(I)cc4F)n(C)c(=O)c(C)c32)c1 , output reported %-inhibition, CDK5/p25.
19
